- tested.system: T1, Cynomolgus CD3 on Cyno CD3+ Jurkat cells (cynomolgus, UniProt Q95LI5 22-198)
- T1 construct: whole, on cells; CD3 on cells; also called cCD3
- T1 sequence (Q95LI5 22-198): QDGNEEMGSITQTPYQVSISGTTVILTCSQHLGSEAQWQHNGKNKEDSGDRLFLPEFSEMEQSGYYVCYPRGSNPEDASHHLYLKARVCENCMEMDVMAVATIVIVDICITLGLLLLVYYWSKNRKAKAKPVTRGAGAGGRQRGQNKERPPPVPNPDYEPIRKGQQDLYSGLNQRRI
- protocol: cell binding cCD3, fold over background
Cut-off 70 FOB on Cell Binding cCD3 (FOB): below means TRUE, at or above means FALSE.

binder | discrete.label
ADI-45962 (antibody, V domains shown, also called Ab25) VH: QVQLVQSGAEVEEPGASVKVSCKASGFNIKDYYMHWVRQAPGQRLEWIGWIDLENANTVYDAKFQGRVTITRDTSASTAYMELSSLRSEDTAVYYCARDAYGRYFYDVWGQGTLVTVSS VL: DIVMTQSPDSLAVSLGERATINCKSSQSLLNARTGKNYLAWYQQKPGQPPKLLIYWASTRESGVPDRFSGSGSGTDFTLTISSLQAEDVAVYYCVQSYFRRTFGGGTKVEIK | TRUE
ADI-45978 (antibody, V domains shown, also called Ab15) VH: QVQLVQSGAEVKKPGASVKVSCKASGFNIKDYYMHWVRQAPGQRLEWLGWIDLENANTVYDAKFQGRVTITRDTSASTAYMELSSLRSEDTAVYYCARDAYGRYFYDVWGQGTLVTVSS VL: DIVMTQSPDSLAVSLGERATINCKSSQSLLNARTGKNYLAWYQQKPGQPPKLLIYWASARESGVPDRFSGSGSGTDFTLTISSLQAEDVAVYYCTQSYFRRTFGGGTKVEIK | TRUE
ADI-45969 (antibody, V domains shown, also called Ab5) VH: QVQLVQSGAEVKKPGASVKVSCKASGFNIKDYYMHWVRQAPGQRLEWIGWIDLENANTVYDAKFQGRVTITRDTSASTAYMELGSLRSEDTAVYYCARDAYGRYFYDVWGQGTLVTVSS VL: DIVMTQSPDSLAVSLGERATINCKSSQSLLNARTGKNYLAWYQQKPGQPPKLLIYWASTRESGVPDRFSGSGSGTDFTLTISSLQAEDVAVYYCAQSYFRRTFGGGTKVEIK | TRUE
ADI-45965 (antibody, V domains shown, also called Ab28) VH: QVQLVQSGAEVKKPGASVKVSCKASGFNIKDYYMHWVRQAPGQRLEWIGWIDLENANAVYDAKFQGRVTITRDTSASTAYMELSSLRSEDTAVYYCARDAYGRYFYDVWGQGTLVTVSS VL: DIVMTQSPDSLAVSLGGRATINCKSSQSLLNARTGKNYLAWYQQKPGQPPKLLIYWASTRESGVPDRFSGSGSGTDFTLTISSLQAEDVAVYYCVQSYFRRTFGGGTKVEIK | FALSE
ADI-46366 (antibody, V domains shown, also called Ab50) VH: QVQLVQSGAEVKKPGASVKVSCKASGFNIKDYYMHWVRQAPGQRLEWIGWIDLENANTVYDAKFQGRVTITRDTSASTAYMELSSLRSEDTAVYYCARDAYGQYFYDVWGQGTLVTVSS VL: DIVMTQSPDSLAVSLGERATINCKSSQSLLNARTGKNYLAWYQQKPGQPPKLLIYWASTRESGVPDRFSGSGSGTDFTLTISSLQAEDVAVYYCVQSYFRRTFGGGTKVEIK | FALSE
ADI-46371 (antibody, V domains shown, also called Ab35) VH: QAQLVQSGAEVKKPGASVKVSCKASGFNIKDYYMHWVRQAPGQRPEWIGWIDLENANTVYDAKFQGRVTITRDTSASTAYMELSSLRSEDTAAYYCARDAYGRYFYDVWGQGTLVTVSS VL: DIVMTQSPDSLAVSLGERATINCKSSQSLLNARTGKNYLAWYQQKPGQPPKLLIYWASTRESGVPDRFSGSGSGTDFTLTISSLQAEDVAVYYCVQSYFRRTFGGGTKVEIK | FALSE
ADI-45974 (antibody, V domains shown, also called Ab10) VH: QVQLVQSGAEVKKPGASVKVSCKASGFNIKDYYMHWVRQAPGQRLEWIGWIDLENANTVYDAKFQGRVTITRDTSASTAYMELSNLRSEDTAVYYCARDAYGRYFYDVWGQGTLVTVSS VL: DIVMTQSPDSLAVSLGERATINCKSSQSLLNARTGKNYLAWYQQKPGQPPKLLIYWASTRESGVPDRFSGSGSGTDFTLTISSLQAEDVAVYYCKQSYFRRTFGGGTKVEIK | TRUE
ADI-46359 (antibody, V domains shown, also called Ab42) VH: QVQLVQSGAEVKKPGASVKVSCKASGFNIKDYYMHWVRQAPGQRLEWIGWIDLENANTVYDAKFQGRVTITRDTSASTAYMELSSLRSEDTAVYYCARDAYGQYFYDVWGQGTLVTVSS VL: DIVMTQSPDSLAVSLGERATINCKSSQSLLNARTGKNYLAWYQQKPGQPPKLLIYWASTRESGVPDRFSGSGSGTDFTLTISSLQAEDVAVYYCTQSYFRRTFGGGTKVEIK | FALSE
ADI-46358 (antibody, V domains shown, also called Ab31) VH: QVQLVQSGAEVKKPGASVKVSCKASGFNIKDYYMHWVRQAPGQRLEWIGWIDLENANTVYDAKFQGRVTITRDTSASTAYMELSNLRSEDTAVYYCARDAYGRYFYDVWGQGTLVTVSS VL: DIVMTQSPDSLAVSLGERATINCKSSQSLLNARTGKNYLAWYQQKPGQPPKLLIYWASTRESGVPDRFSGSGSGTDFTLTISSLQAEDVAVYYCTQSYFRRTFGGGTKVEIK | FALSE
ADI-45975 (antibody, V domains shown, also called Ab11) VH: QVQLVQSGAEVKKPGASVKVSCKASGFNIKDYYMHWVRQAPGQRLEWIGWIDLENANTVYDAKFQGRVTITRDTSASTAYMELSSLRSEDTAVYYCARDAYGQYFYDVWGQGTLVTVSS VL: DIVMTQSPDSLAVSLGERATINCKSSQSLLNARTRKNYLAWYQQKPGQPPKLLIYWASTRESGVPDRFSGSGSGTDFTLTISSLQAEDVAVYYCKQSYFRRTFGGGTKVEIK | FALSE
